Origin of the recorded values: patent US6495698B1

# test-summary: Particle size determination with Coulter LS Particle Size Analyzer
# Type: physicochemical
# test-settings: commercially available sample
recorded-metric: Particle Size 10% is greater than (μ)

Entry CC1(C)C(=O)N(Cl)C(=O)N1Cl — recorded Particle Size 10% is greater than = 195.3

The molecule CC1(C)C(=O)N(Cl)C(=O)N1Br showed Particle Size 10% is greater than equal to 877.9

P. CC1(C)C(=O)N(Br)C(=O)N1Br [DBDMH - Great Lakes, 1,3-dibromo-5,5-dimethylhydantoin]
Q. CC1(C)C(=O)N(Br)C(=O)N1Br [DBDMH - Aldrich, 1,3-dibromo-5,5-dimethylhydantoin]
R. CC1(C)C(=O)N(Br)C(=O)N1Br [DBDMH - Albemarle, 1,3-dibromo-5,5-dimethylhydantoin]
*Q* Rank ascending by Particle Size 10% is greater than. Write the labels, ordered according to the request.
*A* P, R, Q

====

# test-summary: Particle size determination with Coulter LS Particle Size Analyzer
# Type: physicochemical
# test-settings: commercially available sample
recorded-metric: Particle Size 90% is greater than (μ)

Sample answers from the record:
Lookup result for CC1(C)C(=O)N(Cl)C(=O)N1Br [BCDMH - Aldrich, N,N′-bromochloro-5,5-dimethylhydantoin] ; measured Particle Size 90% is greater than: 29.35

The molecule identified as CC1(C)C(=O)N(Br)C(=O)N1Br [DBDMH - Great Lakes, 1,3-dibromo-5,5-dimethylhydantoin] registered its Particle Size 90% is greater than at 13.90

The recorded Particle Size 90% is greater than for entry CC1(C)C(=O)N(Cl)C(=O)N1Cl [DCDMH - Aldrich, 1,3-dichloro-5,5-dimethylhydantoin] equals 27.19

A. CC1(C)C(=O)N(Br)C(=O)N1Br [DBDMH - Aldrich, 1,3-dibromo-5,5-dimethylhydantoin]
B. CC1(C)C(=O)N(Br)C(=O)N1Br [DBDMH - Albemarle, 1,3-dibromo-5,5-dimethylhydantoin]
*Q* Select the item with the higher value of Particle Size 90% is greater than from the options A and B listed. // return label of chosen record
*A* A

====

# test-summary: Particle size determination with Coulter LS Particle Size Analyzer
# Format: physicochemical
# test-settings: commercially available sample
recorded-metric: Particle Size Average (μ)

Some solved cases for reference:
Given item CC1(C)C(=O)N(Br)C(=O)N1Br [DBDMH - Great Lakes, 1,3-dibromo-5,5-dimethylhydantoin] , the value recorded as its Particle Size Average is 45.23

Particle Size Average reading for CC1(C)C(=O)N(Cl)C(=O)N1Br [BCDMH - Aldrich, N,N′-bromochloro-5,5-dimethylhydantoin] : 323.8

A. CC1(C)C(=O)N(Cl)C(=O)N1Cl [DCDMH - Aldrich, 1,3-dichloro-5,5-dimethylhydantoin]
B. CC1(C)C(=O)N(Br)C(=O)N1Br [DBDMH - Aldrich, 1,3-dibromo-5,5-dimethylhydantoin]
C. CC1(C)C(=O)N(Br)C(=O)N1Br [DBDMH - Albemarle, 1,3-dibromo-5,5-dimethylhydantoin]
*Q* Form: Sort by [Particle Size Average] Order [ ascending ] Dear reader, please state the labels in the requested order.
*A* C, A, B

====

# test-summary: Particle size determination with Coulter LS Particle Size Analyzer
# Type: physicochemical
# test-settings: commercially available sample
recorded-metric: Particle Size 75% is greater than (μ)

Particle Size 75% is greater than for CC1(C)C(=O)N(Br)C(=O)N1Br [DBDMH - Great Lakes, 1,3-dibromo-5,5-dimethylhydantoin] is 23.25

P. CC1(C)C(=O)N(Br)C(=O)N1Br [DBDMH - Albemarle, 1,3-dibromo-5,5-dimethylhydantoin]
Q. CC1(C)C(=O)N(Cl)C(=O)N1Cl
*Q* Recorded Particle Size 75% is greater than values differ for P and Q ; which one is higher? Refer to your chosen entry by its label in the reply.
*A* Q
(Q: 45.99 μ, P: 26.85 μ)

====

# test-summary: Particle size determination with Coulter LS Particle Size Analyzer
# Type: physicochemical
# test-settings: commercially available sample
recorded-metric: Particle Size 50% is greater than (μ)

Here is how some molecules turned out for Particle Size 50% is greater than.
response.value for CC1(C)C(=O)N(Cl)C(=O)N1Cl (field: Particle Size 50% is greater than) = 80.07

Per the record, CC1(C)C(=O)N(Br)C(=O)N1Br [DBDMH - Albemarle, 1,3-dibromo-5,5-dimethylhydantoin] has Particle Size 50% is greater than of 39.21

Per the records, this molecule ( CC1(C)C(=O)N(Cl)C(=O)N1Br ) has Particle Size 50% is greater than equal to 173.9

P. CC1(C)C(=O)N(Br)C(=O)N1Br [DBDMH - Aldrich, 1,3-dibromo-5,5-dimethylhydantoin]
Q. CC1(C)C(=O)N(Br)C(=O)N1Br [DBDMH - Great Lakes, 1,3-dibromo-5,5-dimethylhydantoin]
*Q* Hi, I'm comparing P with Q and wondering which one has the bigger number for Particle Size 50% is greater than. Any idea? Which one? Tell me its label.
*A* P

====

# test-summary: Particle size determination with Coulter LS Particle Size Analyzer
# Type: physicochemical
# test-settings: commercially available sample
recorded-metric: Particle Size 25% is greater than (μ)

Past entries and their recorded results:
Input CC1(C)C(=O)N(Cl)C(=O)N1Br [BCDMH - Aldrich, N,N′-bromochloro-5,5-dimethylhydantoin] . Output Particle Size 25% is greater than: 409.9

Input CC1(C)C(=O)N(Br)C(=O)N1Br [DBDMH - Aldrich, 1,3-dibromo-5,5-dimethylhydantoin] . Output Particle Size 25% is greater than: 177.6

a. CC1(C)C(=O)N(Cl)C(=O)N1Cl [DCDMH - Aldrich, 1,3-dichloro-5,5-dimethylhydantoin]
b. CC1(C)C(=O)N(Br)C(=O)N1Br [DBDMH - Albemarle, 1,3-dibromo-5,5-dimethylhydantoin]
c. CC1(C)C(=O)N(Br)C(=O)N1Br [DBDMH - Great Lakes, 1,3-dibromo-5,5-dimethylhydantoin]
*Q* Your job: order these 3 records by Particle Size 25% is greater than, ascending. # respond with the labels, arranged in the requested order
*A* c, b, a
